The origin of these recorded values is ChEMBL document CHEMBL4334541.

system: K562; test: Antiproliferative activity against human K562 cells assessed as reduction in cell viability after 72 hrs by CCK8 assay; format: functional, cell-based; conditions: K562, 72 h
MEASURE: pIC50
Remember the convention: pIC50 equals -log10 of concentration in molar.

[in] Param readout= pIC50; system= K562; entry= Nc1cc(F)ccc1NC(=O)c1ccc(CNC(=O)/C=C/c2cccnc2)cc1 [TUCIDINOSTAT] ; returns value.
[out] 6.49

----------
target: UniProtKB P43490; test: Inhibition of human NAMPT using NAM and PRPP as substrates incubated for 90 mins in presence of NMNAT by fluorometric method
Sequence (P43490 whole entry): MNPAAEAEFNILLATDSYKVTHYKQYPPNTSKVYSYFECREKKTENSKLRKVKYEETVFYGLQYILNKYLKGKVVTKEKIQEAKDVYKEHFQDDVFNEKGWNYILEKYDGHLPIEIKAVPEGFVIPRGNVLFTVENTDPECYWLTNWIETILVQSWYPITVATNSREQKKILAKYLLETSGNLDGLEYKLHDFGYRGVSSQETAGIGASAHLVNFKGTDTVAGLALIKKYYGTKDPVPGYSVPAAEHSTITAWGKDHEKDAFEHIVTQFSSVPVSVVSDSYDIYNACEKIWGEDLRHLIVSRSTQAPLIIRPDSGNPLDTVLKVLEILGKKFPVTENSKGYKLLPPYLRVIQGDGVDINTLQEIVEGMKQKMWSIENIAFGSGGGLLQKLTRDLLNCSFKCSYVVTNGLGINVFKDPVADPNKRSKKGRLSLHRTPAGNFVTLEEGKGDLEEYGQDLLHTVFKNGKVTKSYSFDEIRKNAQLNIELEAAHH
MEASURE: pIC50
Remember the convention: pIC50 equals -log10 of concentration in molar.

[in] Query (molecule): Nc1cc(F)ccc1NC(=O)c1ccc(CNC(=O)/C=C/c2cccnc2)cc1 ; field requested: pIC50
[out] 5.68

----------
tested on: HEL; assay: Antiproliferative activity against human HEL cells NAMPT deficient assessed as reduction in cell viability after 72 hrs by CCK8 assay; assay type: functional, cell-based
MEASURE: pIC50
Remember the convention: pIC50 equals -log10 of concentration in molar.

[in] Query (compound): Nc1cc(F)ccc1NC(=O)c1ccc(CNC(=O)/C=C/c2cccnc2)cc1 ; field requested: pIC50
[out] 5.74
